Each item that follows carries a reported TD50.
method description: in vivo
reported conditions: mouse, ip

compound: Cc1nnc2c3c(c(N4CCOCC4)nn12)CCCC3
TD50: 90 mg/kg
--
compound: Cc1cc2nnc(C)n2nc1N1CCCCC1
TD50: 260 mg/kg
--
compound: CN1CCN(c2nn3cnnc3c3c2CCCC3)CC1 [Example 27]
TD50: 134 mg/kg
--
compound: Cc1cc2nncn2nc1N1CCOCC1
TD50: 45 mg/kg
--
compound: Cc1nnc2c3c(c(N4CCOCC4)nn12)C1CCC3C1 (stereo not shown) [Example 6]
TD50: 61 mg/kg

Asked: What does the data say about its TD50? Entry: Cc1cc2nncn2nc1N1CCCC1 [Example 3]
Given back: 141 mg/kg

Asked: What does the data say about its TD50? Entry: c1nnc2c3c(c(N4CCCC4)nn12)C1CCC3CC1 [Example 15]
Given back: 117 mg/kg

Numbers sourced from patent US4526890A.
